test_target: Pseudomonas cepacia lipase PCL (Burkholderia cepacia, UniProt P22088)
Construct: purchased Sigma-Aldrich Co., Ltd
Sequence (P22088 45-364): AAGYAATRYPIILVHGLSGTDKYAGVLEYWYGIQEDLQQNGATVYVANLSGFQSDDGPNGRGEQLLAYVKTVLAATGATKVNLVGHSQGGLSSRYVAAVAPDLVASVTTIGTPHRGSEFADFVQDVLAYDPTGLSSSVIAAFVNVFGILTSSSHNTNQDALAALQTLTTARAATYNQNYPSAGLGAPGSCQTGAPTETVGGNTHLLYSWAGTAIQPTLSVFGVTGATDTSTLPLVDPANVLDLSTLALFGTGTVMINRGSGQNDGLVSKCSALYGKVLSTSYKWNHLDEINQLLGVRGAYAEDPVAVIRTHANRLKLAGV
experiment_description: Hydrolytic activity of surfactant-treated lipase PCL using pNPP as substrate
Format: biochemical
condition_notes: surfactant 10 mM, protein 0.2 mg·mL^−1
quantity: Hydrolytic activity, Total recovery (%)
Your answer should be a plain number; it is taken to be in %.

>>> measured_result("CCCCCCCCCCCCCCCC[N+](C)(C)C.[Br-] [CTAB, hexadecyl trimethyl ammonium bromide]")
29
>>> measured_result("C[C@H](CCC(=O)NCCC[N+](C)(C)CCCS(=O)(=O)[O-])[C@H]1CC[C@H]2[C@@H]3[C@H](O)C[C@@H]4C[C@H](O)CC[C@]4(C)[C@H]3C[C@H](O)[C@]12C [CHAPS]")
101
>>> measured_result("CCCCCCCCCCCCOCCOCCOCCOCCOCCOCCOCCOCCO [C12E8, octaethylene glycol monododecyl ether]")
98
>>> measured_result("CCCCCCCCCCCCO[C@@H]1O[C@H](CO)[C@@H](O[C@H]2O[C@H](CO)[C@@H](O)[C@H](O)[C@H]2O)[C@H](O)[C@H]1O [DDM, n-dodecyl-ß-D-maltopyranoside]")
111
>>> measured_result("CCCCCC(=O)OC[C@H](COP(=O)([O-])OCC[N+](C)(C)C)OC(=O)CCCCC [DiC6PC, 1,2-dihexanoyl lecithin]")
140

# input for lookup
Exam item: I have this molecule here, CCCCCCCCCCCCCC(=O)OCC(O)COP(=O)([O-])OCC[N+](C)(C)C (stereo not drawn) [LPC14] , and I need its recorded Hydrolytic activity, Total recovery.
Marked response: 119
